Every entry's value here was drawn from the supplement of paper PMC10307832.

- System: EBC-1
- protocol-notes: relative viability (nuclei count vs DMSO), 5 days (fraction); higher = more cells survive
- reported-conditions: first compound 0.02 µM
Response field label: string, one of rule met (relative viability strictly below 0.2) or rule not met.

| molecule | class-assignment |
| --- | --- |
| CCNC(=O)c1noc(-c2cc(C(C)C)c(O)cc2O)c1-c1ccc(CN2CCOCC2)cc1 [Luminespib] + C[C@@H](Oc1cc(-c2cnn(C3CCNCC3)c2)cnc1N)c1c(Cl)ccc(F)c1Cl [Crizotinib] (partner 1 µM) | rule met |
| CCNC(=O)c1noc(-c2cc(C(C)C)c(O)cc2O)c1-c1ccc(CN2CCOCC2)cc1 [Luminespib] + CS(=O)(=O)CCNCc1ccc(-c2ccc3ncnc(Nc4ccc(OCc5cccc(F)c5)c(Cl)c4)c3c2)o1 [Lapatinib] (partner 2 µM) | rule not met |
| CN1CCN(CCOc2cc(OC3CCOCC3)c3c(Nc4c(Cl)ccc5c4OCO5)ncnc3c2)CC1 [Saracatinib] + COc1cc2c(Oc3ccc(NC(=O)C4(C(=O)Nc5ccc(F)cc5)CC4)cc3F)ccnc2cc1OCCCN1CCOCC1 [Foretinib] (partner 0.25 µM) | rule met |
| CN1CCN(CCOc2cc(OC3CCOCC3)c3c(Nc4c(Cl)ccc5c4OCO5)ncnc3c2)CC1 [Saracatinib] + CS(=O)(=O)N1CCN(Cc2cc3nc(-c4cccc5[nH]ncc45)nc(N4CCOCC4)c3s2)CC1 [Pictilisib] (partner 1 µM) | rule not met |
| CCNC(=O)c1noc(-c2cc(C(C)C)c(O)cc2O)c1-c1ccc(CN2CCOCC2)cc1 [Luminespib] + CS(=O)(=O)N1CCN(Cc2cc3nc(-c4cccc5[nH]ncc45)nc(N4CCOCC4)c3s2)CC1 [Pictilisib] (partner 1 µM) | rule not met |
| CCNC(=O)c1noc(-c2cc(C(C)C)c(O)cc2O)c1-c1ccc(CN2CCOCC2)cc1 [Luminespib] + Cc1nc(NC(=O)N2CCC[C@H]2C(N)=O)sc1-c1ccnc(C(C)(C)C(F)(F)F)c1 [Alpelisib] (partner 2 µM) | rule not met |
| CCNC(=O)c1noc(-c2cc(C(C)C)c(O)cc2O)c1-c1ccc(CN2CCOCC2)cc1 [Luminespib] + COc1cc2c(Oc3ccc(NC(=O)C4(C(=O)Nc5ccc(F)cc5)CC4)cc3F)ccnc2cc1OCCCN1CCOCC1 [Foretinib] (partner 0.25 µM) | rule met |
| CN1CCN(CCOc2cc(OC3CCOCC3)c3c(Nc4c(Cl)ccc5c4OCO5)ncnc3c2)CC1 [Saracatinib] + CC1(C)CCC(c2ccc(Cl)cc2)=C(CN2CCN(c3ccc(C(=O)NS(=O)(=O)c4ccc(N[C@H](CCN5CCOCC5)CSc5ccccc5)c(S(=O)(=O)C(F)(F)F)c4)cc3)CC2)C1 [Navitoclax] (partner 0.5 µM) | rule not met |

====

- Tested on: NCI-H2228
- protocol-notes: relative viability (nuclei count vs DMSO), 5 days (fraction); higher = more cells survive
- reported-conditions: first compound 0.006325 µM
assay-metric: relative viability

| compound | measurement |
| --- | --- |
| CCNC(=O)c1noc(-c2cc(C(C)C)c(O)cc2O)c1-c1ccc(CN2CCOCC2)cc1 [Luminespib] + O=C(c1cc(Cc2n[nH]c(=O)c3ccccc23)ccc1F)N1CCN(C(=O)C2CC2)CC1 [Olaparib] (partner 8 µM) | 0.638 |
| CCNC(=O)c1noc(-c2cc(C(C)C)c(O)cc2O)c1-c1ccc(CN2CCOCC2)cc1 [Luminespib] + Cc1nc(NC(=O)N2CCC[C@H]2C(N)=O)sc1-c1ccnc(C(C)(C)C(F)(F)F)c1 [Alpelisib] (partner 2 µM) | 0.595 |
| CCNC(=O)c1noc(-c2cc(C(C)C)c(O)cc2O)c1-c1ccc(CN2CCOCC2)cc1 [Luminespib] + COc1cc2c(Oc3ccc(NC(=O)C4(C(=O)Nc5ccc(F)cc5)CC4)cc3F)ccnc2cc1OCCCN1CCOCC1 [Foretinib] (partner 0.25 µM) | 0.844 |
| CCNC(=O)c1noc(-c2cc(C(C)C)c(O)cc2O)c1-c1ccc(CN2CCOCC2)cc1 [Luminespib] + CC(C)C[C@H](NC(=O)[C@H](Cc1ccccc1)NC(=O)c1cnccn1)B(O)O [Bortezomib] (partner 0.002 µM) | 0.952 |

====

- Test system: NCI-H2170
- protocol-notes: relative viability (nuclei count vs DMSO), 5 days (fraction); higher = more cells survive
- reported-conditions: first compound 0.1 µM

| molecule | relative viability |
| --- | --- |
| Cc1cn(-c2cc(NC(=O)c3ccc(C)c(Nc4nccc(-c5cccnc5)n4)c3)cc(C(F)(F)F)c2)cn1 [Nilotinib] + C[C@@H](Oc1cc(-c2cnn(C3CCNCC3)c2)cnc1N)c1c(Cl)ccc(F)c1Cl [Crizotinib] (partner 1 µM) | 1.19 |
| Cc1cn(-c2cc(NC(=O)c3ccc(C)c(Nc4nccc(-c5cccnc5)n4)c3)cc(C(F)(F)F)c2)cn1 [Nilotinib] + N=C(N)NC(=N)NCCc1ccccc1 [Phenformin] (partner 250 µM) | 0.363 |
| Cc1cn(-c2cc(NC(=O)c3ccc(C)c(Nc4nccc(-c5cccnc5)n4)c3)cc(C(F)(F)F)c2)cn1 [Nilotinib] + CS(=O)(=O)N1CCN(Cc2cc3nc(-c4cccc5[nH]ncc45)nc(N4CCOCC4)c3s2)CC1 [Pictilisib] (partner 1 µM) | 0.299 |
| Cc1cn(-c2cc(NC(=O)c3ccc(C)c(Nc4nccc(-c5cccnc5)n4)c3)cc(C(F)(F)F)c2)cn1 [Nilotinib] + O=C(c1cc(Cc2n[nH]c(=O)c3ccccc23)ccc1F)N1CCN(C(=O)C2CC2)CC1 [Olaparib] (partner 8 µM) | 0.614 |

====

- Tested on: BEN
- protocol-notes: relative viability (nuclei count vs DMSO), 5 days (fraction); higher = more cells survive
- reported-conditions: first compound 0.1 µM
Response field label: string, one of true (relative viability strictly below 0.5) or false.

| compound | assay-target | class-assignment |
| --- | --- | --- |
| Cc1cn(-c2cc(NC(=O)c3ccc(C)c(Nc4nccc(-c5cccnc5)n4)c3)cc(C(F)(F)F)c2)cn1 [Nilotinib] + COc1cccc2cc(-c3nc([C@H]4CC[C@H](C(=O)O)CC4)n4ncnc(N)c34)[nH]c12 [OSI-027] (partner 0.5 µM) | BEN | true |
| Cc1cn(-c2cc(NC(=O)c3ccc(C)c(Nc4nccc(-c5cccnc5)n4)c3)cc(C(F)(F)F)c2)cn1 [Nilotinib] + N=C(N)NC(=N)NCCc1ccccc1 [Phenformin] (partner 250 µM) | BEN | true |
| Cc1cn(-c2cc(NC(=O)c3ccc(C)c(Nc4nccc(-c5cccnc5)n4)c3)cc(C(F)(F)F)c2)cn1 [Nilotinib] + Nc1ncn([C@H]2C[C@H](O)[C@@H](CO)O2)c(=O)n1 [Decitabine] (partner 2 µM) | BEN | false |
| Cc1cn(-c2cc(NC(=O)c3ccc(C)c(Nc4nccc(-c5cccnc5)n4)c3)cc(C(F)(F)F)c2)cn1 [Nilotinib] + CC(=O)Nc1cccc(-n2c(=O)n(C3CC3)c(=O)c3c(Nc4ccc(I)cc4F)n(C)c(=O)c(C)c32)c1 [Trametinib] (partner 0.02 µM) | BEN | false |
| Cc1cn(-c2cc(NC(=O)c3ccc(C)c(Nc4nccc(-c5cccnc5)n4)c3)cc(C(F)(F)F)c2)cn1 [Nilotinib] + Nc1nc2[nH]cc(CCc3ccc(C(=O)N[C@@H](CCC(=O)O)C(=O)O)cc3)c2c(=O)[nH]1 [Pemetrexed] (partner 0.2 µM) | BEN | true |
| Cc1cn(-c2cc(NC(=O)c3ccc(C)c(Nc4nccc(-c5cccnc5)n4)c3)cc(C(F)(F)F)c2)cn1 [Nilotinib] + CCNC(=O)c1noc(-c2cc(C(C)C)c(O)cc2O)c1-c1ccc(CN2CCOCC2)cc1 [Luminespib] (partner 0.01 µM) | BEN | true |
| Cc1cn(-c2cc(NC(=O)c3ccc(C)c(Nc4nccc(-c5cccnc5)n4)c3)cc(C(F)(F)F)c2)cn1 [Nilotinib] + CC(C)C[C@H](NC(=O)[C@H](Cc1ccccc1)NC(=O)c1cnccn1)B(O)O [Bortezomib] (partner 0.002 µM) | BEN | false |
| Cc1cn(-c2cc(NC(=O)c3ccc(C)c(Nc4nccc(-c5cccnc5)n4)c3)cc(C(F)(F)F)c2)cn1 [Nilotinib] + NC(=O)Nc1cc(-c2cccc(F)c2)sc1C(=O)N[C@H]1CCCNC1 [AZD7762] (partner 0.2 µM) | BEN | false |

====

- Tested on: EKVX
- protocol-notes: relative viability (nuclei count vs DMSO), 5 days (fraction); higher = more cells survive
- reported-conditions: first compound 0.006325 µM

| molecule | assay-target | relative viability |
| --- | --- | --- |
| CCNC(=O)c1noc(-c2cc(C(C)C)c(O)cc2O)c1-c1ccc(CN2CCOCC2)cc1 [Luminespib] + Cc1nc(Nc2ncc(C(=O)Nc3c(C)cccc3Cl)s2)cc(N2CCN(CCO)CC2)n1 [Dasatinib] (partner 0.075 µM) | EKVX | 0.509 |
| CCNC(=O)c1noc(-c2cc(C(C)C)c(O)cc2O)c1-c1ccc(CN2CCOCC2)cc1 [Luminespib] + CS(=O)(=O)N1CCN(Cc2cc3nc(-c4cccc5[nH]ncc45)nc(N4CCOCC4)c3s2)CC1 [Pictilisib] (partner 1 µM) | EKVX | 0.46 |
| CCNC(=O)c1noc(-c2cc(C(C)C)c(O)cc2O)c1-c1ccc(CN2CCOCC2)cc1 [Luminespib] + COc1cc2c(Oc3ccc(NC(=O)C4(C(=O)Nc5ccc(F)cc5)CC4)cc3F)ccnc2cc1OCCCN1CCOCC1 [Foretinib] (partner 0.25 µM) | EKVX | 0.453 |
| CCNC(=O)c1noc(-c2cc(C(C)C)c(O)cc2O)c1-c1ccc(CN2CCOCC2)cc1 [Luminespib] + CC(=O)c1c(C)c2cnc(Nc3ccc(N4CCNCC4)cn3)nc2n(C2CCCC2)c1=O [Palbociclib] (partner 0.5 µM) | EKVX | 0.364 |
